Tested on: furin, P09958;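 note: purified furin at 1:10 enzyme:substrate in 50 mM HEPES pH 7.5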
Sequence (P09958 whole entry): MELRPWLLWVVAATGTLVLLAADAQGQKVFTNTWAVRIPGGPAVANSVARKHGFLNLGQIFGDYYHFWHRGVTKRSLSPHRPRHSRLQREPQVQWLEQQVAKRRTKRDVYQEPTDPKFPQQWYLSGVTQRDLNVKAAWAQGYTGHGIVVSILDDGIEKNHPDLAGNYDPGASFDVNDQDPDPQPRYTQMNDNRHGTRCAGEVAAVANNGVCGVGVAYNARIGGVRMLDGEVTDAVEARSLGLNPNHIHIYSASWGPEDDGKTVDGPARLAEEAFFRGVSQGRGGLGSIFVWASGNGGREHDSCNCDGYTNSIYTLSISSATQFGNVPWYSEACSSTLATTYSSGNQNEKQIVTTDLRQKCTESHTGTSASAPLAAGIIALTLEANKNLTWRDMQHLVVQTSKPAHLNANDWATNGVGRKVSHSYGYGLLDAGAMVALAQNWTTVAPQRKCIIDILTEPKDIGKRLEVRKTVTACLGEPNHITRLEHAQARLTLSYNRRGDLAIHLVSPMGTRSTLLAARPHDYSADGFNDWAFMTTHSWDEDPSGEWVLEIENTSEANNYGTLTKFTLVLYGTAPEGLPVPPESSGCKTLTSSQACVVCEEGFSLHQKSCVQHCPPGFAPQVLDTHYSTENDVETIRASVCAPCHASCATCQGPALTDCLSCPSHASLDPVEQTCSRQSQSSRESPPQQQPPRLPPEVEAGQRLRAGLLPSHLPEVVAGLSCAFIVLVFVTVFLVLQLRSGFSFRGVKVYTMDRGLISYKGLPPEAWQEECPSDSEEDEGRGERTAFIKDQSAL
Test protocol: furin cleavage Z-score vs untreated control; higher = more cleavage, active = 3.5 or more, inactive = 1 or less, 8 variable residues between constant flanks
Experimental conditions: 30 min
This is one part of the list. How many sequences the whole screen found active is unknown.
Parameter: furin cleavage Z-score
Give your answer as a number; write no unit.

Ask: For the sequence shown here, CATRARLSRPAGNASASA [FS-1098] , give the reported furin cleavage Z-score.
Reply: -0.467

Ask: And CARHERDAGVAGNASASA [FS-1822] ?
Reply: -0.236

Ask: And CARQKRDTTHAGNASASA [FS-2750] ?
Reply: 9.68

Ask: And CASTACSAHLAGNASASA [HC2503] ?
Reply: -0.356

Ask: And CAAQAPPPSWAGNASASA [HC959] ?
Reply: -1.2

meta.source: the supplement of paper PMC3545927
